measured attribute: melting point

Q: Record request: melting point value, item CC(C)CCN(c1ccc(C(=O)O)cc1)c1nc(-c2cc(Cl)ccc2OCc2ccccc2)cs1
A: 143 to 149 °C

----------
# melting point listing for each entry below

// known answers, use as guide
molecule	melting point
CCN(c1ccc(C(=O)O)cc1)c1nc(-c2ccc(NC(=O)c3ccccc3)cc2)cs1 [Example 7]	250 °C (dec.)
CN(Cc1ccc(C2CCCCC2)cc1)c1cc(-c2csc(N(C)Cc3ccc(C(=O)O)cc3)n2)cc(Cl)n1 [Example 228]	155 to 157 °C
O=C(O)c1ccc(Nc2nc(-c3ccc(NC(=O)c4ccccc4)cc3)cs2)cc1 [Example 4]	250 °C (dec.)

Q: Record request: melting point value, item CC(C)CN(c1ccc(C(=O)O)cc1)c1nc(-c2ccc(NC(=O)c3ccc(C4CCCCC4)cc3)cc2)cs1 [Example 17]
A: 230 °C (dec.)

Q: Try the molecule CC(C)N(Cc1ccc(C(=O)O)cc1)c1nc(-c2ccc(NS(=O)(=O)c3ccc(C(F)(F)F)cc3)cc2)cs1 [Example 106]
A: 132 to 134 °C

Q: Try the molecule CN(Cc1ccc(C(=O)O)cc1)c1nc(-c2cnc(N(C)Cc3ccc(C4CCCCC4)cc3)c(Cl)c2)cs1 [Example 232]
A: 144 to 145 °C

Q: Try the molecule CN(Cc1ccc(C(=O)O)cc1)c1nc(-c2ccc3[nH]c(-c4ccc(C5CCCCC5)cc4)nc3c2)cs1 [Example 231]
A: 250 °C

----------
# melting point listing for each entry below

// known answers, use as guide
compound	measured attribute	endpoint result
CC(C)N(c1ccc(C(=O)O)cc1)c1nc(-c2ccc(NC(=O)c3ccccc3)cc2)cs1	melting point	234 to 236 °C
O=C(O)c1ccc(CN(CC2CCCCC2)c2nc(-c3nc4ccc(OCc5ccc(Cl)c(Cl)c5)cc4o3)cs2)cc1	melting point	188 to 190 °C
CN(c1ccc(C(=O)O)cc1)c1nc(-c2ccc(OCc3ccc(C4CCCCC4)cc3)cc2)cs1	melting point	250 °C (dec.)
CC1CCN(c2ccc(C(=O)Nc3ccc(-c4csc(N(c5ccc(C(=O)O)cc5)C(C)C)n4)cc3)cc2)CC1.Cl	melting point	230 °C (dec.)
O=C(O)CN(c1ccc(C(=O)O)cc1)c1nc(-c2ccc(NC(=O)c3ccc(C4CCCCC4)cc3)cc2)cs1	melting point	230 °C (dec.)
COc1ccc(OCc2ccc(C(F)(F)F)cc2)c(-c2csc(Nc3ccc(C(=O)O)cc3OCc3ccccc3)n2)c1	melting point	227 to 230 °C
CN(Cc1ccc(C2CCC(C)(C)CC2)cc1)c1ccc(-c2csc(N(C)Cc3ccc(C(=O)[O-])cc3)n2)cc1.[Na+]	melting point	230 °C
CN(Cc1ccc(C2CCC(C)(C)CC2)cc1)c1ccc(-c2csc(N(C)Cc3ccc(C(=O)O)cc3)n2)cc1	melting point	155 to 158 °C
CN(c1ccc(C(=O)O)cc1)c1nc(-c2ccc(NCc3ccc(Cl)c(Cl)c3)cc2)cs1	melting point	223 to 225 °C
O=C(O)c1ccc(Nc2nc(-c3ccc(OCc4ccc(C5CCCCC5)cc4)cc3)cs2)c(OCCC2CCCCC2)c1	melting point	230 °C (dec.)

Q: Record request: melting point value, item CC(C)(C)c1ccc(C(=O)Nc2ccc(-c3csc(Nc4ccc(C(=O)O)cc4)n3)cc2)cc1
A: 250 °C (dec.)

Q: Try the compound O=C(O)c1ccc(Nc2nc(-c3cccc(OCc4ccc(C5CCCCC5)cc4)c3)cs2)cc1
A: 235 to 236 °C

Q: Try the compound CC(C)N(Cc1ccc(C(=O)O)cc1)c1nc(-c2ccc(NC(=O)c3ccc(C4CCCCC4)cc3)cc2)cs1
A: 250 °C (dec.)

----------
measured attribute: melting point

// known answers, use as guide
smiles repr	measured attribute	endpoint result
CC(C)Oc1ccc(C(=O)Nc2ccc(-c3csc(Cc4ccc(C(=O)O)cc4)n3)cc2)cc1	melting point	230 °C (dec.)
CCN(c1ccc(C(=O)O)cc1)c1nc(-c2cccc(OCc3ccc(C4CCCCC4)cc3)c2)cs1	melting point	179 to 180 °C
CC(C)N(Cc1ccc(-c2nnn[nH]2)cc1)c1nc(-c2ccc(OCc3ccc(C4CCCCC4)cc3)cc2)cs1	melting point	238 to 239 °C
CN(Cc1ccc(C(=O)OCC(=O)OC(C)(C)C)cc1)c1nc(-c2ccc(OCc3ccc(C4CCCCC4)cc3)cc2)cs1	melting point	122 to 123 °C
CC(C)CSc1ccc(CN(C)c2ccc(-c3csc(N(C)Cc4ccc(C(=O)O)cc4)n3)cc2)cc1	melting point	132 to 134 °C
CC(C)c1ccc(CNc2ccc(-c3csc(N(CC4CCCCC4)c4ccc(C(=O)O)cc4)n3)cc2)cc1	melting point	200 to 202 °C

Q: Record request: melting point value, item COc1ccc(OCc2ccccc2)c(-c2csc(N(CCC3CCCCC3)c3ccc(C(=O)O)cc3)n2)c1
A: 132 to 137 °C

Q: Try the compound CC(C)N(c1ccc(C(=O)O)cc1)c1nc(-c2ccc(NC(=O)C3CCCCC3)cc2)cs1
A: 230 °C (dec.)

----------
measured attribute: melting point

molecule	melting point
CC(C)OC(=O)OC(C)OC(=O)c1ccc(CN(C)c2nc(-c3ccc(OCc4ccc(C5CCCCC5)cc4)cc3)cs2)cc1 (stereo not drawn)	76 to 84 °C
CN(Cc1ccc(C(=O)OC2OC(=O)c3ccccc32)cc1)c1nc(-c2ccc(OCc3ccc(C4CCCCC4)cc3)cc2)cs1 (stereo not drawn)	104 to 105 °C
O=C(O)c1ccc(Cc2nc(-c3ccc(NC(=O)c4ccc(C5CCCCC5)cc4)cc3)cs2)cc1	230 °C (dec.)
O=C(O)c1ccc(Nc2nc(-c3ccc(OCc4ccc(C5CCCCC5)cc4)cc3)cs2)c(OCc2ccccc2)c1	230 °C (dec.)
CC(C)N(Cc1ccc(C(=O)O)cc1)c1nc(-c2ccc(NC(=O)c3ccc(-c4ccccc4)cc3)cc2)cs1	250 °C (dec.)

Q: Record request: melting point value, item COc1cc(COc2ccc3nc(-c4csc(N(CC5CCCCC5)c5ccc(C(=O)O)cc5)n4)oc3c2)cc(OC)c1
A: 160 to 162 °C

----------
# melting point listing for each entry below

molecule	measured attribute	endpoint result
CN(c1ccc(C(=O)O)cc1)c1nc(-c2ccc(NCc3ccc(C4CCCCC4)cc3)cc2)cs1.O=S(=O)(O)O	melting point	239 °C (dec.)
CN(Cc1ccc(C2CCCC(=O)C2)cc1)c1ccc(-c2csc(N(C)Cc3ccc(C(=O)O)cc3)n2)cc1 (stereo not shown)	melting point	189 to 191 °C
CN(CCc1ccc(Cl)c(Cl)c1)c1ccc(-c2csc(N(C)Cc3ccc(C(=O)O)cc3)n2)cc1	melting point	151 to 152 °C
CN(Cc1ccc(C(=O)O)cc1)c1nc(-c2ccc(N(C)Cc3ccc(C(C)(C)C)cc3)c(Cl)c2)cs1	melting point	153 to 154 °C
CN(Cc1ccc(C2CCCC2)cc1)c1ccc(-c2csc(N(C)Cc3ccc(C(=O)O)cc3)n2)cc1	melting point	181 to 183 °C

Q: Record request: melting point value, item CC(C)N(Cc1ccccc1C(=O)O)c1nc(-c2ccc(OCc3ccc(C4CCCCC4)cc3)cc2)cs1
A: 259 to 261 °C

Q: Try the molecule CC(C)N(Cc1ccc(C(=O)O)cc1)c1nc(-c2ccc(NS(=O)(=O)c3ccc(C(C)(C)C)cc3)cc2)cs1
A: 178 to 180 °C

Q: Try the molecule CN(Cc1ccc([C@H]2CCC[C@H](O)C2)cc1)c1ccc(-c2csc(N(C)Cc3ccc(C(=O)O)cc3)n2)cc1 (relative stereo)
A: 159 to 161 °C

Q: Try the molecule CCC(CC)c1ccc(CN(C)c2ccc(-c3csc(N(C)Cc4ccc(C(=O)O)cc4)n3)cc2)cc1
A: 147 to 148 °C

Q: Try the molecule O=C(O)c1ccc(Nc2nc(-c3ccc(OCc4ccc(C5CCCCC5)cc4)cc3)cs2)cc1
A: 250 °C (dec.)

----------
# melting point listing for each entry below

// known answers, use as guide
smiles repr	measured attribute	endpoint result
O=C(O)c1ccc(Nc2nc(-c3ccc(OCc4ccc(-c5ccccc5)cc4)cc3)cs2)cc1	melting point	230 °C (dec.)
CN(Cc1ccc(C(=O)O)cc1)c1nc(-c2ccc(N(C)C[C@H]3CC[C@H](c4ccccc4)CC3)cc2)cs1	melting point	191 to 193 °C
CC(C)N(c1ccc(OCC(=O)O)cc1)c1nc(-c2ccc(NC(=O)c3cc(Cl)cc(Cl)c3)cc2)cs1	melting point	192 to 194 °C

Q: Record request: melting point value, item O=C(O)CN(c1ccc(C(=O)O)cc1)c1nc(-c2ccc(NC(=O)c3ccccc3)cc2)cs1
A: 210 °C (dec.)

Q: Try the molecule CC(C)N(c1cccc(C(=O)O)c1)c1nc(-c2ccc(NC(=O)c3ccc(N4CCOCC4)cc3)cc2)cs1.Cl
A: 230 °C (dec.)

Q: Try the molecule CC(C)N(c1ccc(OCC(=O)O)cc1)c1nc(-c2ccc(NC(=O)c3ccc(C4CCCCC4)cc3)cc2)cs1
A: 240 °C (dec.)

Q: Try the molecule O=C(O)c1ccc(N(Cc2ccc(Cl)c(Cl)c2)c2nc(-c3cc(Cl)ccc3OCc3ccccc3)cs2)cc1
A: 196 to 198 °C
